Recorded values, source patent US20130012436A1.

Target: T1, human IL-23 (human, UniProt Q9NPF7 20-189; P29460 23-328)
T1 construct: also called hIL-23; human recombinant IL-23
T1 sequence (looked up) 1: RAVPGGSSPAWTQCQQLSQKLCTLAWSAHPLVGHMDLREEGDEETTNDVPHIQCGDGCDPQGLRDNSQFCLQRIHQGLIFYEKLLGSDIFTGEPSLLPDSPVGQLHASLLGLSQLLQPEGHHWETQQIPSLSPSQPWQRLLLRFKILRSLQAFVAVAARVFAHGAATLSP
T1 sequence (looked up) 2: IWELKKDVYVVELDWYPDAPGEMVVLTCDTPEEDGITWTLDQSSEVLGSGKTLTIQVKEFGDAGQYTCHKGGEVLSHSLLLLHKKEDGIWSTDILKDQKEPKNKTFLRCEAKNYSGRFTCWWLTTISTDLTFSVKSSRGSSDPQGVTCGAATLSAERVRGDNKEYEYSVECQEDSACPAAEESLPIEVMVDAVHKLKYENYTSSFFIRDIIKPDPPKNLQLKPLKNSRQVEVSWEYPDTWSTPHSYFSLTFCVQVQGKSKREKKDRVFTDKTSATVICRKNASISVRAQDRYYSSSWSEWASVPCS
Assay: SPR (ProteOn XPR), human IL-23 directly immobilized, 25 C
Measured property: koff (s⁻¹)

Example entries and their recorded answers appear below.
ATI000934 (designed binder, pegylated at the C-terminal EIDKPCQ (Cys), also called ATI 934; not shown: his-tag) MGVSDVPRDLEVVAATPTSLLISWGHYPLHLRYYRITYGETGGNSPVQEFTVPRTKYTATISGLKPGVDYTITVYAVTYYKEADYSQIPISINYRTEIDKPCQ; 1.8e-05
ATI001047 (designed binder, pegylated at the C-terminal GSGC linker (Cys)) MGVSDVPRDLEVVAATPTSLLISWGHYPLHVRYYRITYGETGGNSPVQEFTVPPRSHTATISGLKPGVDYTITVYAVTYYAQENYKEIPISINYRTGSGC; 2e-05
ATI001014 (designed binder, pegylated at the C-terminal GSGC linker (Cys), not shown: his-tag) MGVSDVPRDLEVVAATPTSLLISWGHYPLHVRYYRITYGETGGNSPVQEFTVPPRSHTATISGLKPGVDYTITVYAVTYYAQENYKEIPISINYRTGSGC; 1.7e-05

(1) 1571G04 (designed binder, captured by anti-His mAb) MGVSDVPRDLEVVAATPTSLLISWGHYPLHVRYYRITYGETGGNSPVQEFTVPPRSHTATISGLKPGVDYTITVYAVTYYAQENYKEIPISINYRTEIDKPSQHHHHHH
(2) ATI001045 (designed binder, pegylated at the C-terminal GSGC linker (Cys)) MGVSDVPRDLEVVAATPTSLLISWGHYPLHVRYYRITYGETGGNSPVQEFTVPSRKYTATISGLKPGVDYTITVYAVTYYKEANYREIPISINYRTGSGC
Form field 'greater koff' accepts 1 or 2 ; which applies? Record your answer as the label of the chosen record. 2
